System: KG-1
Assay Summary: Antiproliferative activity against human KG-1 cells assessed as inhibition of cell growth incubated for 72 hrs by MTT assay
Assay type: functional, cell-based
Setup Conditions: KG-1, 72 h
Property Name: pIC50
Quick note: pIC50 means taking -log10 of the concentration in moles per liter.

Sample records with pIC50:
QUERY: Bench note: what pIC50 did CCc1nccnc1C(=O)/C=C/c1ccc(S(C)(=O)=O)cc1 show?
RESULT: 5.44

QUERY: Bench note: what pIC50 did O=C(/C=C/c1cccc(Cl)c1Cl)c1cnccn1 show?
RESULT: 4.26

QUERY: Bench note: what pIC50 did Cc1nccnc1C(=O)/C=C/c1ccc(F)cc1 show?
RESULT: 4.66

We now examine a further molecule.
QUERY: Bench note: what pIC50 did CCc1nccnc1C(=O)/C=C/c1cccc(Br)c1 show?
RESULT: 5.03

---

System: THP-1
Assay Summary: Antiproliferative activity against human THP-1 cells assessed as inhibition of cell growth incubated for 72 hrs by MTT assay
Type: functional, cell-based
Setup Conditions: THP-1, 72 h
// reported IC50 per item
Write the answer as a number in µM, unit excluded.

Sample records with IC50:
QUERY: Bench note: what IC50 did Cc1nccnc1C(=O)/C=C/c1ccc(F)cc1 show?
RESULT: 30.2

QUERY: Bench note: what IC50 did CCN(CC)c1ccc(/C=C/C(=O)c2nccnc2C)cc1 show?
RESULT: 8.07

QUERY: Bench note: what IC50 did Cc1nccnc1C(=O)/C=C/c1ccccc1Cl show?
RESULT: 1.76

QUERY: Bench note: what IC50 did CCc1nccnc1C(=O)/C=C/c1ccc(C#N)cc1 show?
RESULT: 0.64

Others:
QUERY: Bench note: what IC50 did Cc1ccccc1/C=C/C(=O)c1nccnc1C show?
RESULT: 4.97

QUERY: Bench note: what IC50 did CCc1nccnc1C(=O)/C=C/c1ccc(Cl)cc1Cl show?
RESULT: 8.28

QUERY: Bench note: what IC50 did Cc1nccnc1C(=O)/C=C/c1ccccc1F show?
RESULT: 5.5

QUERY: Bench note: what IC50 did O=C(/C=C/c1ccc(Br)cc1)c1cnccn1 show?
RESULT: 23.7

QUERY: Bench note: what IC50 did CCc1nccnc1C(=O)/C=C/c1cccc(Br)c1 show?
RESULT: 6.69

QUERY: Bench note: what IC50 did Cc1nccnc1C(=O)/C=C/c1cccc(C#N)c1 show?
RESULT: 1.52

QUERY: Bench note: what IC50 did COc1ccc(/C=C/C(=O)c2cnccn2)cc1OC show?
RESULT: 6.55

QUERY: Bench note: what IC50 did O=C(/C=C/c1ccc2c(c1)OC(F)(F)O2)c1cnccn1 show?
RESULT: 20.3

---

Test system: KG-1
Assay Summary: Antiproliferative activity against human KG-1 cells assessed as inhibition of cell growth incubated for 72 hrs by MTT assay
Format: functional, cell-based
Setup Conditions: KG-1, 72 h
Please use YES for IC50 under 6 µM and NO for everything else, ties included.

// known answers, use as guide
QUERY: Lab note: IC50 threshold 6 µM. Does this molecule come in strictly under it? CCc1nccnc1C(=O)/C=C/c1ccc(C)cc1
RESULT: NO

QUERY: Lab note: IC50 threshold 6 µM. Does this molecule come in strictly under it? Cc1nccnc1C(=O)/C=C/c1cc2ccccc2o1
RESULT: YES

QUERY: Lab note: IC50 threshold 6 µM. Does this molecule come in strictly under it? Cc1ccccc1/C=C/C(=O)c1nccnc1C
RESULT: NO

QUERY: Lab note: IC50 threshold 6 µM. Does this molecule come in strictly under it? Cc1nccnc1C(=O)/C=C/c1ccc(C(F)(F)F)cc1
RESULT: YES

QUERY: Lab note: IC50 threshold 6 µM. Does this molecule come in strictly under it? O=C(/C=C/c1ccc(C(F)(F)F)cc1)c1cnccn1
RESULT: NO

Others:
QUERY: Lab note: IC50 threshold 6 µM. Does this molecule come in strictly under it? CCc1nccnc1C(=O)/C=C/c1cccc([N+](=O)[O-])c1
RESULT: YES

QUERY: Lab note: IC50 threshold 6 µM. Does this molecule come in strictly under it? Cc1nccnc1C(=O)/C=C/c1ccccn1
RESULT: YES

QUERY: Lab note: IC50 threshold 6 µM. Does this molecule come in strictly under it? O=C(/C=C/c1cc2c(cc1[N+](=O)[O-])OCO2)c1cnccn1
RESULT: NO

All figures here come from ChEMBL document CHEMBL6114992.
